test system: BRCA2^−/− DLD-1 colorectal adenocarcinoma cells; test: Cell viability assay in BRCA2-/- DLD-1 cells; assay type: cell-based, human; settings: BRCA^−/− DLD-1 cells
quantity.name: pEC50
One number for each entry, as −log10 of the molar value.

q: Name the reported pEC50 value associated with the compound CCc1c2c(nc3ccc(O)cc13)-c1cc3c(c(=O)n1C2)COC(=O)[C@]3(O)CC [SN38, SN-38]
a: 9.19
